targetOrTestSystem: T1, erythropoietin receptor, human recombinant (NSO cells) (human, UniProt P19235 25-250, limits assumed)
T1 construct: also called EPOR; EPO receptor
T1 sequence (looked up): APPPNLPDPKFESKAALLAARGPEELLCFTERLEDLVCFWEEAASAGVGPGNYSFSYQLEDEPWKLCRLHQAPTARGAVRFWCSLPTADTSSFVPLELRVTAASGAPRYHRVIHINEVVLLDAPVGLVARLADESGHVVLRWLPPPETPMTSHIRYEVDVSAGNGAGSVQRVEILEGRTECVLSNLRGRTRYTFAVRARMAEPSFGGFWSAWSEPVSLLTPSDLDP
assayText: radioligand binding, displacement of [125I]EPO
Where no end group is shown, it is not given here.
measurementName: Ki (AC-0005-002)/Ki

I = GGLYACHMGPITAVCQPQGG (not fully specified; cysteine pairing not given here, Structure only as drawing CHEM-US-00004; also called compound 002) [AC-0005-002]
II = NYLCRMGPITWVCKP (not fully specified; cysteine pairing not given here, Structure only as drawing CHEM-US-00005; also called compound 003; Control 2: AC-0005-003) [AC-0005-003]
III = GGNYLCRMGPITWVCKPQGG (not fully specified; cysteine pairing not given here, Structure only as drawing CHEM-US-00003; also called compound 001) [AC-0005-001]
IV = LYACHMGPITAVCQP (not fully specified; cysteine pairing not given here, Structure only as drawing CHEM-US-00006; also called compound 004) [AC-0005-004]
Please produce an ascending ranking of these binders based on Ki (AC-0005-002)/Ki. Return the labels ranked in the requested order, please.
I, III, IV, II
